Where do these numbers come from? They come from patent US5985900A.

Biological target: human progelatinase A (GelA) (Homo sapiens, UniProt P08253)
Sequence (P08253 110-446 limits assumed): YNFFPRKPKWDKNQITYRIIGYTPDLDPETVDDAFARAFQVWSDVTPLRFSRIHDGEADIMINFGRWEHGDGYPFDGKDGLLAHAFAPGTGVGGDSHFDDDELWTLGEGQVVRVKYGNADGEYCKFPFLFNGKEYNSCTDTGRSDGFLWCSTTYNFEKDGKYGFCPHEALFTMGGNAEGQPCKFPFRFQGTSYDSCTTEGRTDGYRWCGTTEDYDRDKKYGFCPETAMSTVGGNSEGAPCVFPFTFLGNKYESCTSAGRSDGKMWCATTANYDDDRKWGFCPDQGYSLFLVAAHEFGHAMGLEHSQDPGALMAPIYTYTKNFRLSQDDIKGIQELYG
Experiment: In vitro MMP inhibition assay (hydrolysis of fluorogenic MCA peptide substrate), gelatinase A
Assay type: biochemical
Settings: Table 1; Ki,app; MCA peptide substrate 10 μM, 37° C., pH 7.5, 2% DMSO; read-out: Gel A
Procedure: The catalytic and fibronectin-like portion of human progelatinase A (GelA) was expressed as a fusion protein with ubiquitin in E. Coli. Assays were carried out on autocatalytically activated material. […] The assay method was based on the hydrolysis of MCA-Pro-Leu-Gly-Leu-DPA-Ala-Arg-NH2 (American Peptide Co.) at 37° C. […] The fluorescence changes were monitored with a Perkin-Elmer LS-50B fluorimeter using an excitation wavelength of 328 nm and an emission wavelength of 393 nm. […]
observed.property: Ki (nM)

Example results:
Cc1cc(CSC(C)(C)[C@@H](NS(=O)(=O)c2ccc(Sc3ccncc3)cc2)C(=O)NO)no1 [Example 10b]
0.75
CSC(C)(C)[C@@H](NS(=O)(=O)c1ccc(Oc2ccccc2)cc1)C(=O)O
351
CC(C)(C)C(NS(=O)(=O)c1ccc(Oc2ccc(F)cc2)cc1)C(=O)NO (stereo in doubt)
0.109
CC(C)(SCc1ccccn1)[C@@H](NS(=O)(=O)c1ccc(Oc2ccc(C#N)cc2)cc1)C(=O)O
73
CC(C)(SCc1ccccc1)[C@@H](NS(=O)(=O)c1ccc(Oc2ccccc2)cc1)C(=O)O
46
Cc1cc(CSC(C)(C)[C@@H](NS(=O)(=O)c2ccc(Oc3ccncc3)cc2)C(=O)NO)no1 [Example 10a]
0.32

A: Cc1cc(CSC(C)(C)[C@@H](NS(=O)(=O)c2ccc(Oc3ccncc3)cc2)C(=O)O)no1
B: CSC(C)(C)[C@@H](NS(=O)(=O)c1ccc(Oc2ccc(Cl)cc2)cc1)C(=O)NO
Incoming: For the pair A and B , which entry has the numerically smaller recorded Ki? // return label of chosen record
Outgoing: B
(B: 0.065 nM, A: 27 nM)
